- measurementTarget: Vitamin D3 receptor (Homo sapiens)
- testProtocol: qHTS assay for small molecule antagonists of vitamin D receptor signaling (AID 588541);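 note: receptor activated by calcitriol during compound treatment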
- details: HEK293T VDR-UAS-bla, beta-lactamase ratio, antagonist mode; series mostly up to 76.7 µM
Inconclusive results are not listed. Active and inactive are the calls of the source. Calls come from the whole dose curve.

{"compound": "Oc1cc(Cl)ccc1Cl", "outcome": "inactive"}
{"compound": "Cc1ccc([N+](=O)[O-])cc1", "outcome": "inactive"}
{"compound": "CN(C)C(=O)Cl", "outcome": "inactive"}
{"compound": "Clc1cccc(Cl)c1Cl", "outcome": "inactive"}
{"compound": "Cc1ccc(N)cc1C", "outcome": "inactive"}
{"compound": "CC(C)(C)OOC(=O)c1ccccc1", "outcome": "inactive"}
{"compound": "[N-]=[N+]=[N-]", "outcome": "inactive"}
{"compound": "N#CCCCCC#N", "outcome": "inactive"}
{"compound": "CC(C)(Cl)Cl", "outcome": "inactive"}
{"compound": "C=C(C)CCl", "outcome": "inactive"}
{"compound": "CN(C)c1ccc(N=Nc2ccccc2)cc1", "outcome": "inactive"}
{"compound": "Clc1ccc(C(Cl)(Cl)Cl)cc1Cl", "outcome": "inactive"}
{"compound": "COC(=O)Nc1nc2ccccc2[nH]1", "outcome": "inactive"}
{"compound": "O=[N+]([O-])c1cccc(O)c1", "outcome": "inactive"}
{"compound": "O=C(Cl)OCc1ccccc1", "outcome": "inactive"}
{"compound": "O=[N+]([O-])c1c(Cl)c(Cl)c(Cl)c(Cl)c1Cl", "outcome": "inactive"}
{"compound": "CCC(Cl)[N+](=O)[O-] (stereo not given)", "outcome": "inactive"}
{"compound": "Nc1cccc(Cl)c1", "outcome": "inactive"}
{"compound": "Brc1cccc(-c2ccccc2)c1", "outcome": "inactive"}
{"compound": "COc1cc(-c2ccc(N)c(OC)c2)ccc1N", "outcome": "inactive"}
{"compound": "O=[N+]([O-])/C=C/c1ccccc1", "outcome": "inactive"}
{"compound": "CC(C)(Cl)[N+](=O)[O-]", "outcome": "inactive"}
{"compound": "Cc1ccccc1[N+](=O)[O-]", "outcome": "inactive"}
{"compound": "Nc1c(Br)cc([N+](=O)[O-])cc1[N+](=O)[O-]", "outcome": "inactive"}
{"compound": "CC(C)Br", "outcome": "inactive"}
{"compound": "O=C(O)c1cc(Cl)ccc1Cl", "outcome": "inactive"}
{"compound": "ClC(Cl)(Cl)C(Cl)(Cl)Cl", "outcome": "inactive"}
{"compound": "BrC(Br)Br", "outcome": "inactive"}
{"compound": "Nc1c(Cl)cc([N+](=O)[O-])cc1Cl", "outcome": "inactive"}
{"compound": "Cc1ccc(N)cc1N", "outcome": "inactive"}
{"compound": "CC(C#N)CCC#N (stereo not given)", "outcome": "inactive"}
{"compound": "ClC(Cl)C(Cl)Cl", "outcome": "inactive"}
{"compound": "C1CC2OC2CC1C1CO1 (stereo not given)", "outcome": "inactive"}
{"compound": "Cl/C=C\\Cl", "outcome": "inactive"}
{"compound": "C=CCBr", "outcome": "inactive"}
